drug sensitivity score values, listed per item
# System: OVCAR8
# TEST_SUMMARY: drug sensitivity score (DSS2) on cancer cell count; higher = more sensitive; extreme values may be limits of the assay
# SETUP_CONDITIONS: co-cultured fibroblast: WI38; 72 h
Give just the number in DSS; leave the unit off.

Consider the reported drug sensitivity score for these compounds:
>>> recorded_number("O=C1CN2Cc3c(ccc(Cl)c3Cl)N=C2N1 [Anagrelide]")
11.9
>>> recorded_number("CC[C@@H]1C(=O)N(C)c2cnc(Nc3ccc(C(=O)NC4CCN(C)CC4)cc3OC)nc2N1C1CCCC1")
25.6
>>> recorded_number("C[C@H]1CN(C2COC2)CCN1c1ccc(Nc2cc(-c3ccnc(N4CCn5c(cc6c5CC(C)(C)C6)C4=O)c3CO)cn(C)c2=O)nc1")
2.3

Then this compound:
Enquiry: Identify measured drug sensitivity score corresponding to Cn1cnc2c(F)c(Nc3ccc(Br)cc3F)c(C(=O)NOCCO)cc21
Return: 0
